- measurement target: human V1a receptor (Homo sapiens, UniProt P37288)
- Sequence (P37288 whole entry): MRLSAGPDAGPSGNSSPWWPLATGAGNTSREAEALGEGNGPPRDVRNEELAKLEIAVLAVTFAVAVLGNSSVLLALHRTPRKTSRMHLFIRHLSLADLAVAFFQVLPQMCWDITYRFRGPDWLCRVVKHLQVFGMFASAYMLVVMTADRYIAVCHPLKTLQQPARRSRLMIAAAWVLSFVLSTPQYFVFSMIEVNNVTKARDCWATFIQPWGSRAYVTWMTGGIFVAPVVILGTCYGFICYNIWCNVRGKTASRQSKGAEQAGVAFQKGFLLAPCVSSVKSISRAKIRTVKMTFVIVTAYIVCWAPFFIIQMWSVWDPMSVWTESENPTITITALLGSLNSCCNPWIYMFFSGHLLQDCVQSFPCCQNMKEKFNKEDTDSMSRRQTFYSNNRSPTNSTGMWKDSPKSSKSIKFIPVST
- experiment description: Cellular in vitro assay for determining vasopressin receptor activity, V1a receptor cell line (CHO, aequorin luminescence)
- test parameters: CHO cell line transfected with human V1a receptor; [Arg]-vasopressin at EC50 concentration; read-out: IC50 hV1a
measurement label: IC50 (nM)
Give bare numbers, in nM.

Examples with answers:
smiles representation: O=C(Nc1cccnc1-n1cnc(Cn2nc(-c3ccc(Cl)cc3)n(C[C@H](O)C(F)(F)F)c2=O)n1)C1(F)CC1
measurement label: IC50
measurement: 13

smiles representation: CC1(NC(=O)c2cccnc2-n2nc(Cn3nc(-c4ccc(Cl)cc4)n(C[C@H](O)C(F)(F)F)c3=O)nc2C(=O)N2CCNC(=O)C2)CC1
measurement label: IC50
measurement: 9400

Let us move to another entry and its IC50.
Fill in IC50 for record "O=C(Nc1ncccc1-n1cnc(Cn2nc(-c3ccc(Cl)cc3)n(C[C@H](O)C(F)(F)F)c2=O)n1)c1ccccc1"
92

###

- measurement target: human V1a receptor (Homo sapiens, UniProt P37288)
- Construct: expressed in transfected cells; host or cells: CHO K1 (ATCC), also stably transfected with a modified aequorin
- experiment description: Cellular in vitro assay for determining vasopressin receptor activity, V1a receptor cell line (CHO, aequorin luminescence)
- Format: cell-based
- test parameters: selectivity ratio IC50 hV2 / IC50 hV1a
measurement label: ratio IC50 hV2/hV1a
One number for each entry.

compound: CC1(C)COCCN1C(=O)c1ncccc1-n1cnc(Cn2nc(-c3ccc(Cl)cc3)n(C[C@@H](O)C(F)(F)F)c2=O)n1 [Example 475]
measurement target: human V1a receptor (Homo sapiens, UniProt P37288)
ratio IC50 hV2/hV1a: 733.3

compound: O=C(NCC(F)(F)F)Nc1cccnc1-n1cnc(Cn2nc(-c3ccc(Cl)cc3)n(C[C@H](O)C(F)(F)F)c2=O)n1 [Example 63]
measurement target: human V1a receptor (Homo sapiens, UniProt P37288)
ratio IC50 hV2/hV1a: 366.1

Let us move to another entry and its ratio IC50 hV2/hV1a.
Fill in ratio IC50 hV2/hV1a for record O=C(NCCC(F)(F)F)c1ccccc1-n1cnc(Cn2nc(-c3ccc(Cl)cc3)n(C[C@H](O)C(F)(F)F)c2=O)n1 [Example 182]
85.4

###

- measurement target: human V1a receptor (Homo sapiens)
- Construct: expressed in transfected cells; host or cells: CHO K1 (ATCC), also stably transfected with a modified aequorin
- experiment description: Cellular in vitro assay for determining vasopressin receptor activity, V1a receptor cell line (CHO, aequorin luminescence)
- Type: cell-based
- test parameters: selectivity ratio IC50 hV2 / IC50 hV1a
measurement label: ratio IC50 hV2/hV1a
Give bare numbers.

compound: O=C(Nc1ccc(F)cc1)c1ccccc1-n1cnc(Cn2nc(-c3ccc(Cl)cc3)n(C[C@H](O)C(F)(F)F)c2=O)n1 [Example 310]
measurement: 82.7

compound: O=C(c1ncccc1-n1cnc(Cn2nc(-c3ccc(Cl)cc3)n(C[C@H](O)C(F)(F)F)c2=O)n1)N1CCC(F)(F)C1 [Example 437]
measurement: 91.4

Let us move to another entry and its ratio IC50 hV2/hV1a.
Fill in ratio IC50 hV2/hV1a for record O=C(NC1CC1(F)F)c1ncccc1-n1cnc(Cn2nc(-c3ccc(Cl)cc3)n(C[C@H](O)C(F)(F)F)c2=O)n1 (mixture of isomers) [Example 436]
33.0

###

- measurement target: human V1a receptor (Homo sapiens, UniProt P37288)
- Construct: expressed in transfected cells; host or cells: CHO K1 (ATCC), also stably transfected with a modified aequorin
- experiment description: Cellular in vitro assay for determining vasopressin receptor activity, V1a receptor cell line (CHO, aequorin luminescence)
- Format: cell-based
- test parameters: selectivity ratio IC50 hV2 / IC50 hV1a
measurement label: ratio IC50 hV2/hV1a

Examples with answers:
molecule: O=C1CCC(CNc2ncccc2-n2cnc(Cn3nc(-c4ccc(Cl)cc4)n(C[C@H](O)C(F)(F)F)c3=O)n2)N1 (stereo partly shown)
measurement target: human V1a receptor (Homo sapiens, UniProt P37288)
ratio IC50 hV2/hV1a: 4.6
//
molecule: O=C1CCN(C(=O)c2ccccc2-n2cnc(Cn3nc(-c4ccc(Cl)cc4)n(C[C@H](O)C(F)(F)F)c3=O)n2)CCN1
measurement target: human V1a receptor (Homo sapiens, UniProt P37288)
ratio IC50 hV2/hV1a: 255.1
//
molecule: O=C(CF)Nc1cccnc1-n1cnc(Cn2nc(-c3ccc(Cl)cc3)n(C[C@H](O)C(F)(F)F)c2=O)n1
measurement target: human V1a receptor (Homo sapiens, UniProt P37288)
ratio IC50 hV2/hV1a: 15.7
//
molecule: O=C(NCc1cc(F)ccc1F)c1ccccc1-n1cnc(Cn2nc(-c3ccc(Cl)cc3)n(C[C@H](O)C(F)(F)F)c2=O)n1
measurement target: human V1a receptor (Homo sapiens, UniProt P37288)
ratio IC50 hV2/hV1a: 57.0
//
molecule: CN(C)[C@H]1CCN(C(=O)c2ccccc2-n2cnc(Cn3nc(-c4ccc(Cl)cc4)n(C[C@H](O)C(F)(F)F)c3=O)n2)C1
measurement target: human V1a receptor (Homo sapiens, UniProt P37288)
ratio IC50 hV2/hV1a: 509.8

Please look at the items below and tell me ratio IC50 hV2/hV1a for each one, in order.
1. CCn1nccc1NC(=O)c1ccccc1-n1cnc(Cn2nc(-c3ccc(Cl)cc3)n(C[C@H](O)C(F)(F)F)c2=O)n1
2. CONC(=O)c1ccccc1-n1cnc(Cn2nc(-c3ccc(Cl)cc3)n(C[C@H](O)C(F)(F)F)c2=O)n1

1: 102.1; 2: 243.2

###

- measurement target: human V2 receptor (Homo sapiens)
- Construct: expressed in transfected cells; host or cells: CHO K1 (ATCC) expressing firefly luciferase under a CRE-responsive promoter
- Sequence (P30518 whole entry): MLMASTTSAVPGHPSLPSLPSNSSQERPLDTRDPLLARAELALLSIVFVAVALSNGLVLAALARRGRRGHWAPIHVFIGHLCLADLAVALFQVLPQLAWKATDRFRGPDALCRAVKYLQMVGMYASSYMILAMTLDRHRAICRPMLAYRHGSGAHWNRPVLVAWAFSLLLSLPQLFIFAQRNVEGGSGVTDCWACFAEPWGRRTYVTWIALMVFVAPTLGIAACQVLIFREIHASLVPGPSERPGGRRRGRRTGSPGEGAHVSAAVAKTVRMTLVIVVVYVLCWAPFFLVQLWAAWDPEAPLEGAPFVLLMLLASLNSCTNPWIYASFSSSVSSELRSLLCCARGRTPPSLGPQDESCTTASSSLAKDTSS
- experiment description: Cellular in vitro assay for determining vasopressin receptor activity, V2 receptor cell line (CHO, CRE-luciferase)
- Assay type: cell-based
- test parameters: CHO cell line transfected with human V2 receptor; [Arg8]-vasopressin at EC50 concentration, 3 hours; read-out: IC50 hV2
measurement label: IC50
A complete answer gives the number and then names the unit.

Examples with answers:
molecule: Cc1cc(C(=O)Nc2ncccc2-n2cnc(Cn3nc(-c4ccc(Cl)cc4)n(C[C@H](O)C(F)(F)F)c3=O)n2)nn1C [Example 129]
IC50: 3650 nM
--
molecule: O=C(Nc1ncccc1-n1cnc(Cn2nc(-c3ccc(Cl)cc3)n(C[C@H](O)C(F)(F)F)c2=O)n1)C1CC1F (single isomer, unassigned) [Example 86]
IC50: 1400 nM
--
molecule: O=C(Nc1ccncc1-n1cnc(Cn2nc(-c3ccc(Cl)cc3)n(C[C@H](O)C(F)(F)F)c2=O)n1)[C@@H]1C[C@@H]1F [Example 34]
IC50: 1240 nM
--
molecule: NC(=O)[C@@H]1CC(F)(F)CN1C(=O)c1ccccc1-n1cnc(Cn2nc(-c3ccc(Cl)cc3)n(C[C@H](O)C(F)(F)F)c2=O)n1 [Example 197]
IC50: 6950 nM
--
molecule: CNC(=O)c1cc(Cl)ccc1-n1cnc(Cn2nc(-c3ccc(Cl)cc3)n(C[C@H](O)C(F)(F)F)c2=O)n1 [Example 187]
IC50: 48.5 nM

Please look at the items below and tell me IC50 for each one, in order.
1. O=C1CCC(NC(=O)c2ccccc2-n2cnc(Cn3nc(-c4ccc(Cl)cc4)n(C[C@H](O)C(F)(F)F)c3=O)n2)CN1 (mixture of isomers) [Example 191]
2. CCc1cc(C(=O)Nc2ncccc2-n2cnc(Cn3nc(-c4ccc(Cl)cc4)n(C[C@H](O)C(F)(F)F)c3=O)n2)on1 [Example 140]
3. Cc1nonc1C(=O)Nc1ncccc1-n1cnc(Cn2nc(-c3ccc(Cl)cc3)n(C[C@H](O)C(F)(F)F)c2=O)n1 [Example 133]
4. COC[C@@H]1CCCN1C(=O)c1ccccc1-n1cnc(Cn2nc(-c3ccc(Cl)cc3)n(C[C@H](O)C(F)(F)F)c2=O)n1 [Example 339]

1: 3750 nM; 2: 1010 nM; 3: 1450 nM; 4: 3650 nM

Please look at the items below and tell me IC50 for each one, in order.
1. CN(CC1CC1)C(=O)c1ccccc1-n1cnc(Cn2nc(-c3ccc(Cl)cc3)n(C[C@H](O)C(F)(F)F)c2=O)n1 [Example 289]
2. CC1CCCCN1C(=O)c1ccccc1-n1cnc(Cn2nc(-c3ccc(Cl)cc3)n(C[C@H](O)C(F)(F)F)c2=O)n1 (stereo partly shown) [Example 352]
3. CCn1cc(C(=O)Nc2ncccc2-n2cnc(Cn3nc(-c4ccc(Cl)cc4)n(C[C@H](O)C(F)(F)F)c3=O)n2)cn1 [Example 112]

1: 445 nM; 2: 320 nM; 3: 66000 nM

Fill in IC50 for record O=C(CC1CC1)Nc1ccncc1-n1cnc(Cn2nc(-c3ccc(Cl)cc3)n(C[C@H](O)C(F)(F)F)c2=O)n1 [Example 30]
783 nM
